# systemUnderTest: VLA4 (Homo sapiens, UniProt P05556+P13612)
# Construct: endogenous in cells; host or cells: Ramos cells
# Sequence (P13612 34-1032): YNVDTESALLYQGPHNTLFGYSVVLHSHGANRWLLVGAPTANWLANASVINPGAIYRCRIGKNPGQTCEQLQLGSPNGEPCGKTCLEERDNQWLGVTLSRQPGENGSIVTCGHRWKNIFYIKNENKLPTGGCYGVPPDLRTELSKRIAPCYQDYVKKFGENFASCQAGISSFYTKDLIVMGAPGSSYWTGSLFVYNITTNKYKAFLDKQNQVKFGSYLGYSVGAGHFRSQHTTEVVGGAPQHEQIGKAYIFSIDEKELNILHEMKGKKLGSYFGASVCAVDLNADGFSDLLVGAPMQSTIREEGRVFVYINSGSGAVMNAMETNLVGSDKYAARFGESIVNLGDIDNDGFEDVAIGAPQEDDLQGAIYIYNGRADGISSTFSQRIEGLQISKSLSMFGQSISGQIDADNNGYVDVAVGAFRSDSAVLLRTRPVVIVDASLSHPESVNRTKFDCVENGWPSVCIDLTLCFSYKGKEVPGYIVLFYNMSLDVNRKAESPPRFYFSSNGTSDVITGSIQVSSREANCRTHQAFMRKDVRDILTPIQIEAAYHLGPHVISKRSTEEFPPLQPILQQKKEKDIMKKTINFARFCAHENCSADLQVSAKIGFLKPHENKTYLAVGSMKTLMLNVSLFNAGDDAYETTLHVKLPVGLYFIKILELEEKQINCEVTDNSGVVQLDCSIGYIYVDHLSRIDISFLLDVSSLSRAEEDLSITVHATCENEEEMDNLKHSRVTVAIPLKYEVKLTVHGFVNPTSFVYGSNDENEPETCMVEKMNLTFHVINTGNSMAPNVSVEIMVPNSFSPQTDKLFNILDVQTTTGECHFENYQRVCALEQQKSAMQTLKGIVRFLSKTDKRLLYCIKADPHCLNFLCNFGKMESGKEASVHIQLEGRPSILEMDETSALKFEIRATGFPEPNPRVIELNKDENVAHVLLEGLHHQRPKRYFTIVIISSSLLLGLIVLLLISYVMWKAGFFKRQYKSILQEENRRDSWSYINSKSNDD
# Sequence (P05556 21-798): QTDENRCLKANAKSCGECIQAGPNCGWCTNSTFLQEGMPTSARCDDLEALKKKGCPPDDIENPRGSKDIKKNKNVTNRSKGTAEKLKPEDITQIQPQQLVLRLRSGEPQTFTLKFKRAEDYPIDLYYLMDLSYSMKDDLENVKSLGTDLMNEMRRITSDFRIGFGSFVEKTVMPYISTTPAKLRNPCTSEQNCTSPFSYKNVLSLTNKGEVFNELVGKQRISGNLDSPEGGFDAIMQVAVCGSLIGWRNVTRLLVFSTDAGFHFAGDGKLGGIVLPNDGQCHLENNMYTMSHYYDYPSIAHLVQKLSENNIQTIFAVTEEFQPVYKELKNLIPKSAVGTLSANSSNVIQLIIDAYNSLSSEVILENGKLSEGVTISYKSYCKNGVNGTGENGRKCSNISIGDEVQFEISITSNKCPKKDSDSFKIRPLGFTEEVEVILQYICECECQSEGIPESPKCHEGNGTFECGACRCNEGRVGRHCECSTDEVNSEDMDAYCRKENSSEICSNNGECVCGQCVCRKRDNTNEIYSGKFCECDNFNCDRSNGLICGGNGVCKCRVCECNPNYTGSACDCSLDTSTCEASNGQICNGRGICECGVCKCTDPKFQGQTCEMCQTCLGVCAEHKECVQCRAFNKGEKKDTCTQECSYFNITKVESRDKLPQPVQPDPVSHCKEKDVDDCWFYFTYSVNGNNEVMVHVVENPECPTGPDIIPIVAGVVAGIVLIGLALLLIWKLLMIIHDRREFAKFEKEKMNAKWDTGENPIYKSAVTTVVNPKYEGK
# assaySummary: Inhibition of VLA4-dependent adhesion to BSA-CS1
# Format: cell-based
# testContext: binding of BCECF-labelled Ramos cells to BSA-CS1 coated wells, 2 mM MnCl2; read-out: IC50
Peptide text beside a SMILES is read from it. * marks the point of attachment. PhAc = O=C(Cc1ccccc1)*

# compound, IC50
rows = [
    ("CSCC[C@H](NC(=O)Cc1ccc(NC(=O)Nc2ccccc2C)cc1)C(=O)N[C@@H](CC(=O)O)C(=O)N[C@@H](Cc1c[nH]c2ccccc12)C(N)=O [Compound 228]", "< 50 nM"),
    ("CC(C)C[C@H](NC(=O)c1csc(-c2cccnc2)n1)C(=O)N[C@@H](CC(=O)O)C(=O)N[C@H](C(=O)O)C(C)C [Compound 375]", "50 to 10000 nM"),
    ("Cc1ccccc1NC(=O)Nc1ccc(CC(=O)N[C@@H](CC(C)C)C(=O)N[C@@H](CC(=O)O)C(=O)N[C@H](C(N)=O)[C@@H](C)O)cc1 [Compound 235]", "< 50 nM"),
    ("COC(=O)C[C@H](NC(=O)[C@H](CC(C)C)N(C)CCCc1ccccc1)C(=O)N[C@H](C(=O)OC)C(C)C [Compound 112]", "> 10000 nM"),
    ("Cc1ccccc1NC(=O)Nc1ccc(CC(=O)N[C@@H](CO)C(=O)N[C@@H](CC(=O)O)C(=O)N[C@H](C(N)=O)C(C)C)cc1 [Compound 277]", "< 50 nM"),
    ("Cc1ccccc1NC(=O)Nc1ccc(CC(=O)N[C@H](CC(C)C)C(=O)N[C@@H](CC(=O)O)C(=O)N[C@H](CC(C)C)C(N)=O)cc1 [Compound 289]", "< 50 nM"),
    ("Cc1ccccc1NC(=O)Nc1ccc(CC(=O)N2CCC[C@H]2C(=O)N[C@@H](CCC(=O)O)C(=O)N[C@@H](CC(=O)O)C(N)=O)cc1 [Compound 312]", "< 50 nM"),
    ("CCC(C)C(NC(=O)C(CC(=O)O)NC(=O)C(CC(C)C)NC(=O)Cc1ccccc1)C(=O)NC (stereo not drawn) [Compound 55] (PhAc-Leu-Asp-Ile-NHMe; configuration not given here)", "> 10000 nM"),
]
